molecular target: full-length hepatitis C viral protein NS3•4A (Hepatitis C virus genotype 1a); construct: hexa-histidine (N); made in house; host or cells: Sf9 insect cells (baculovirus, pVL1392); assay: biochemical; parameters: species or system HCV sub-type strain 1a; details: Enzyme Assay 2 (HCV NS3 Peptide Cleavage Assay) activity, apparent Ki class
pKi: −log10 of the molar value.
Listed below: pKi values for each entry.

Known results for compounds:
{"input smiles": "C=C[C@@H]1C[C@]1(NC(=O)[C@@H]1C[C@]2(CC(c3cccc(Cl)c3)=NO2)CN1C(=O)[C@@H](NC(=O)NC(C)(C)C)C(C)(C)C)C(=O)O", "system tested": "full-length hepatitis C viral protein NS3•4A (Hepatitis C virus genotype 1a)", "pKi": "< 6.30"}
{"input smiles": "CNC(=O)C(=O)[C@H](CC1CC1)NC(=O)[C@@H]1C[C@]2(CC(c3cccc(Cl)c3)=NO2)CN1C(=O)[C@@H](NC(=O)CC1CCCCC1)C(C)(C)C", "system tested": "full-length hepatitis C viral protein NS3•4A (Hepatitis C virus genotype 1a)", "pKi": "> 7.00"}

Ask: Requested read-out: pKi. Entry: `CCC[C@H](NC(=O)[C@@H]1C[C@]2(CC(c3cc(Cl)ccc3OC)=NO2)CN1C(=O)[C@@H](NC(=O)CC1CCCCCC1)C(C)(C)C)C(=O)C(N)=O`
Reply: > 7.00

* * *

target: HCV NS3 protease domain (Hepatitis C virus genotype 1b, UniProt Q9WMX2); construct: The first 181 amino acids of NS3 (residues 1027-1207 of the viral polyprotein); hexa-histidine (C); made in house; host or cells: E. coli BL21/DE3 pLysS; test: biochemical; conditions: Enzyme Assay 1 (HCV NS3 Protease Domain Peptide Cleavage Assay) activity, apparent Ki class
pKi: −log10 of the molar value.
// values below are reported pKi

Completed entries (count: 4):
{"molecule": "CC1(O)CCC(CC(=O)N[C@H](C(=O)N2C[C@@]3(CC(c4cccc(Cl)c4)=NO3)C[C@H]2C(=O)N[C@@H](CC2CC2)C(=O)C(N)=O)C(C)(C)C)CC1 (some centres unmarked) [Compound 5]", "pKi": "> 7.00"}
{"molecule": "CCC[C@H](NC(=O)[C@@H]1C[C@]2(CC(c3cccc(Cl)c3)=NO2)CN1C(=O)[C@@H](NC(=O)CC1CCCCC1)C(C)(C)C)C(=O)C(=O)NCc1csc(-c2ccccc2)n1 [Compound 176]", "pKi": "6.30 to 7.00"}
{"molecule": "CCC[C@H](NC(=O)[C@@H]1C[C@]2(CC(c3cccc(Cl)c3)=NO2)CN1C(=O)[C@@H](NC(=O)OCCCc1ccccn1)C(C)(C)C)C(=O)C(=O)NC1CC1 [Compound 373]", "pKi": "6.30 to 7.00"}
{"molecule": "CCC[C@H](NC(=O)[C@@H]1C[C@@]2(CC(c3cccc(C(F)(F)F)c3)=NO2)CN1C(=O)[C@@H](NC(=O)O[C@H]1CCOC1)C(C)(C)C)C(=O)C(=O)NC1CC1 [Compound 509]", "pKi": "< 6.30"}

We now examine a further molecule.
Ask: Reported pKi for CCC[C@H](NC(=O)[C@@H]1C[C@]2(CC(c3cccc(Cl)c3)=NO2)CN1C(=O)CC(C)(C)C)C(=O)C(=O)NC1CC1 [Compound 351] : what is it?
Reply: < 6.30
